# STUDY_SYSTEM: Human NPY5 receptor (Homo sapiens, UniProt Q15761)
# Sequence (Q15761 whole entry): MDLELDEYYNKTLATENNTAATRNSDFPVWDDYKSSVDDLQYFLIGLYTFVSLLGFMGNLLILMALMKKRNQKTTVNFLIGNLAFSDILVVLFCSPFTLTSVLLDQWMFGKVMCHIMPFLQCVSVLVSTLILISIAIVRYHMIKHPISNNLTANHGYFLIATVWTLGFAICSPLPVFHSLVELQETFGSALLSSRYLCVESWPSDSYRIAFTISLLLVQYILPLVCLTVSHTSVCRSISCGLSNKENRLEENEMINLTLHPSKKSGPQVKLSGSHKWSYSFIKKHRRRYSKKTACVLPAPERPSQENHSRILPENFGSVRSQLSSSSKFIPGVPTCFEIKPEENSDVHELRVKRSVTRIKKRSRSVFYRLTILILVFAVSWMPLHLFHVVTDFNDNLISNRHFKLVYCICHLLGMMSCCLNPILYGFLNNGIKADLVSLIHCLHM
# MEASUREMENT_DESCRIPTION: Human NPY5 receptor binding assay ([125I]PYY, membrane protein)
# PROTOCOL_CONDITIONS: [125I]PYY binding, read-out: hNPY5 IC50
VALUE_KIND: IC50 (nM)

- N#CC(c1ccccc1)C1CCN(CC(=O)Nc2ccc(C(=O)c3ccccc3)cc2)CC1 (stereo not drawn): 5
- O=C(CN1CCC(Br)CC1)Nc1ccc(C2CCCCC2)cc1: 150
- O=C(CNCC1CCNCC1)Nc1ccc(C2CCCCC2)cc1: 8900
- O=C(CNC(CO)CO)Nc1ccc(C2CCCCC2)cc1: 2000
- NC(=O)C1(NC2CCCCC2)CCN(CC(=O)Nc2ccc(C3CCCCC3)cc2)CC1: 630
- C=CCC(NCC(=O)Nc1ccc(C(=O)c2ccccc2)cc1)C(=O)O (stereo not drawn): 810
- O=C(CN1CCC(N2CCCCC2)CC1)Nc1ccc(C(=O)c2ccccc2)cc1: 2100
- COC(CNCC(=O)Nc1ccc(C(=O)c2ccccc2)cc1)OC: 300
- C#CC(C)(C)NCC(=O)Nc1ccc(C(=O)c2ccccc2)cc1: 540
- Cc1ccc(C2(O)CCN(CC(=O)Nc3ccc(C(=O)c4ccccc4)cc3)CC2)cc1: 220
- CN(C)C1(C(N)=O)CCN(CC(=O)Nc2ccc(C(=O)c3ccccc3)cc2)CC1: 4800
- O=C(CN1CCCC1C(O)(c1ccccc1)c1ccccc1)Nc1ccc(C(=O)c2ccccc2)cc1 (stereo not drawn): 430
- O=C(CN1CCC(N2CCCC2)CC1)Nc1ccc(C(=O)c2ccccc2)cc1: 8500
- CCCC(=O)C1(c2ccccc2)CCN(CC(=O)Nc2ccc(C(=O)c3ccccc3)cc2)CC1: 400

---

Reported values of activity at 10 µM for individual entries
# STUDY_SYSTEM: Rat NPY5 receptor (Rattus norvegicus)
# Sequence (Q63634 whole entry): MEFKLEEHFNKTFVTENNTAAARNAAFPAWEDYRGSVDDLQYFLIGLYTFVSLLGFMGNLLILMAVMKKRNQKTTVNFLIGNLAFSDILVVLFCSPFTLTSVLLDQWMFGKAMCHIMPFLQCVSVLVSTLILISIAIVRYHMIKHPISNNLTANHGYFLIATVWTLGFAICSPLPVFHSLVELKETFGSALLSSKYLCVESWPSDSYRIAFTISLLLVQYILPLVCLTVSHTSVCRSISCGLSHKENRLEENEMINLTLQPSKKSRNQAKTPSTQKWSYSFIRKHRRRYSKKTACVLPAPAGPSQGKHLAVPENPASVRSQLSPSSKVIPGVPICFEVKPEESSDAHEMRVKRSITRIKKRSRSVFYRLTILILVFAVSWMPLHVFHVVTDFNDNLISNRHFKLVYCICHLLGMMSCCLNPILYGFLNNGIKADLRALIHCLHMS
# MEASUREMENT_DESCRIPTION: Rat NPY5 cyclase assay (in vitro functional assay, forskolin-stimulated adenylate cyclase, cAMP)
# Assay type: cell-based
# PROTOCOL_CONDITIONS: 20 min; 10 μM; percentage of forskolin-stimulated adenylate cyclase; read-out: rNPY5 % FSAC (10 μM)
Structures can show the parent of a compound that is named as a salt.
VALUE_KIND: activity at 10 µM (%)

- O=C(CN1CCC(n2c(=O)[nH]c3ccccc32)CC1)Nc1ccc(N=Nc2ccccc2)cc1 [Compound 349, reference compound]: 100
- Cl.O=C(CN1CCC(n2c(=O)[nH]c3ccccc32)CC1)NCCc1ccccc1 [Compound 280, hydrochloride]: 90
- CCCCCCc1ccc(NC(=O)CN2CCC(n3c(=O)[nH]c4ccccc43)CC2)cc1: 92
- CCC(=O)C1(c2ccccc2)CCN(CC(=O)Nc2ccc(C3CCCCC3)cc2)CC1.Cl [Compound 303, hydrochloride]: 93
- CC(=O)NC1CCN(CC(=O)Nc2ccc(C(=O)c3ccccc3)cc2)C1.O=C(O)C(=O)O (stereo not drawn): 85
- Cl.O=C(CN1CCC(n2c(=O)[nH]c3ccccc32)CC1)Nc1ccc(C(=O)c2ccccc2)cc1 [Compound 263, hydrochloride]: 97
- CCOc1ccc(NC(=O)CN2CCC(n3c(=O)[nH]c4ccccc43)CC2)c2ccccc12 [Compound 346, reference compound]: 105
- O=C(CN1CCC(n2c(=O)[nH]c3ccccc32)CC1)Nc1ccc(Oc2ccccc2)cc1 [Compound 352, reference compound]: 90
- N#CC1(c2ccccc2)CCN(CC(=O)Nc2ccc(C3CCCCC3)cc2)CC1 [Compound 295, hydrochloride]: 101
- CCNC1(C(N)=O)CCN(CC(=O)Nc2ccc(C3CCCCC3)cc2)CC1.O=C(O)C(=O)O: 107
- O=C(CN1CCC(n2c(=O)[nH]c3ccccc32)CC1)Nc1ccc(-c2ccccc2)cc1: 103
- CCCCc1ccc(NC(=O)CN2CCC(n3c(=O)[nH]c4ccccc43)CC2)cc1: 103
- CCCOC1(c2ccccc2)CCN(CC(=O)Nc2ccc(C3CCCCC3)cc2)CC1 [Compound 294, hydrochloride]: 101
- Cl.O=C(CN1CCC(n2c(=O)[nH]c3ccccc32)CC1)Nc1ccc2c(c1)-c1ccccc1C2=O [Compound 311, hydrochloride]: 95
- O=C(CN1CCCC1C(O)(c1ccccc1)c1ccccc1)Nc1ccc(C2CCCCC2)cc1 (stereo not drawn): 98

---

VALUE_KIND: melting point (°C)

* Cl.O=C(CN1CCC(n2c(=O)[nH]c3ccccc32)CC1)Nc1ccc2oc3ccccc3c2c1 | 186
* O=C(CN1CCC(n2c(=O)[nH]c3ccccc32)CC1)Nc1ccc2c(c1)-c1ccccc1C2=O | 176
* CC(=O)NC1CCN(CC(=O)Nc2ccc(C3CCCCC3)cc2)C1.O=C(O)C(=O)O (centres unmarked) | 122
* CC(=O)NCC1(c2ccccc2)CCN(CC(=O)Nc2ccc(C3CCCCC3)cc2)CC1.O=C(O)C(=O)O | 146
* Cl.O=C(CN1CCC(n2c(=O)[nH]c3ccccc32)CC1)N1CCCCCCC1 | 158
* O=C(CN1CCC(n2c(=O)[nH]c3ccccc32)CC1)N1CCCCCC1 | 166
* Cl.O=C(CN1CCC(n2c(=O)[nH]c3ccccc32)CC1)Nc1ccc(-c2ccc(F)cc2)cc1 | 289
* CCC(=O)C1(c2ccccc2)CCN(CC(=O)Nc2ccc(C3CCCCC3)cc2)CC1.Cl | 252
* O=C(CN1CCC(n2c(=O)[nH]c3ccccc32)CC1)Nc1cccc2c1-c1ccccc1C2=O | 205
* CCNC1(C(N)=O)CCN(CC(=O)Nc2ccc(C3CCCCC3)cc2)CC1.O=C(O)C(=O)O | 184
* Cl.O=C(CN1CCC(C(=O)c2ccc(F)cc2)CC1)Nc1ccc(C2CCCCC2)cc1 | 258
* CC(=O)NC1CCN(CC(=O)Nc2ccc(C(=O)c3ccccc3)cc2)C1.O=C(O)C(=O)O (centres unmarked) | 100
* Cl.O=C(CN1CCC(n2c(=O)[nH]c3ccccc32)CC1)Nc1ccc2c(c1)-c1ccccc1C2=O | 258

---

# STUDY_SYSTEM: Human NPY1 receptor (Homo sapiens)
# Construct: host or cells: SK-N-MC cells
# Sequence (P25929 whole entry): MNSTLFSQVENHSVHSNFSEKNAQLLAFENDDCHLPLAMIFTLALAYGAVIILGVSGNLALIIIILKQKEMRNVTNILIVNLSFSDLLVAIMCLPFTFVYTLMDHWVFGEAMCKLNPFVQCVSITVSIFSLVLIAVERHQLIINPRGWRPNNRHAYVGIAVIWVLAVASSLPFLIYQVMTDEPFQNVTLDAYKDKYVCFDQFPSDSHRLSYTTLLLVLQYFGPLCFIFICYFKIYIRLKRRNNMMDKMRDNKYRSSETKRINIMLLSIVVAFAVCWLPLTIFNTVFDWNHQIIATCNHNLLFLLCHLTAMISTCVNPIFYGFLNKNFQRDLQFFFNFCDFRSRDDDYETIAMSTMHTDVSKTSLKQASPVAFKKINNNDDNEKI
# MEASUREMENT_DESCRIPTION: Human NPY1 receptor binding assay ([125I]PYY, SK-N-MC cells)
# Experimental: A. Human NPY1 Receptor Binding Assay This is a modification of Gordon et al., (J. Neurochem. 55:506-513, 1990). SK-N-MC cell (ATCC, Rockville, Md.) were plated in 24-well plates. Once confluent, cells were rinsed with Dulbecco's phosphate buffered saline (DPBS). […] After lysing the cells with 1% Triton X-100, the amount of radioactivity in the lysates was quantitated with a gamma counter.
pIC50: −log10 of the molar value. Structures can show the parent of a compound that is named as a salt.
VALUE_KIND: pIC50

- N#CC1(c2ccccc2)CCN(CC(=O)Nc2ccc(C3CCCCC3)cc2)CC1 [Compound 295, hydrochloride]: < 5.30
- CCC(=O)C1(c2ccccc2)CCN(CC(=O)Nc2ccc(C3CCCCC3)cc2)CC1.Cl [Compound 303, hydrochloride]: < 5.30

---

# STUDY_SYSTEM: Human NPY5 receptor (Homo sapiens, UniProt Q15761)
# MEASUREMENT_DESCRIPTION: Human NPY5 receptor binding assay ([125I]PYY, membrane protein)
# PROTOCOL_CONDITIONS: [125I]PYY, read-out: hNPY5 IC50
Counter-ions that a name gives are not always drawn.
Reported values of log10(IC50) for individual entries
VALUE_KIND: log10(IC50) (log10 of the value in µM)

* O=C(CN1CCN(c2ccccc2)CC1)Nc1ccc(C2CCCCC2)cc1 [Compound 272] | -0.93
* CCN(CC)c1ccc(NC(=O)CN2CCC(n3c(=O)[nH]c4ccccc43)CC2)cc1 [Compound 336, reference compound] | -0.66
* CC(C)c1ccc(NC(=O)CN2CCC(n3c(=O)[nH]c4ccccc43)CC2)cc1 [Compound 257] | -0.96
* CN(C)c1ccc(NC(=O)CN2CCC(n3c(=O)[nH]c4ccccc43)CC2)cc1 [Compound 353, reference compound] | -0.87
* CC(C(=O)Nc1ccc(-c2ccccc2)cc1)N1CCC(n2c(=O)[nH]c3ccccc32)CC1 (stereo not shown) [Compound 329, hydrochloride] | -1.70
* O=C(CN1CCC(n2c(=O)[nH]c3ccccc32)CC1)Nc1ccc2c(c1)-c1ccccc1C2=O [Compound 266] | -3.30
* O=C(CN1CCOCC1)Nc1ccc(C2CCCCC2)cc1 [Compound 362, reference compound] | -0.70
* O=C(CN1CCC(n2c(=O)[nH]c3ccccc32)CC1)Nc1ccc(O)cc1 [Compound 345, reference compound] | 0.46
* CCN(CC)CCCC(C)NCC(=O)Nc1ccc(C(=O)c2ccccc2)cc1 (stereo not shown) [Compound 246] | 0.20
* O=C(CN1CCCC1C(O)(c1ccccc1)c1ccccc1)Nc1ccc(C2CCCCC2)cc1 (stereo not shown) [Compound 296] | -1.32
* CC(C(=O)Nc1ccc(C2CCCCC2)cc1)N1CCC(n2c(=O)[nH]c3ccccc32)CC1 (stereo not shown) [Compound 278] | -1.55
* O=C(CN1CCC(O)(Cc2ccccc2)CC1)Nc1ccc(-c2ccccc2)cc1 [Compound 315, hydrochloride] | -0.10
* CC(C)OC(=O)c1ccc(NC(=O)CN2CCC(n3c(=O)[nH]c4ccccc43)CC2)cc1 [Compound 260] | -1.85
* O=C(CN1CCC(n2c(=O)[nH]c3ccccc32)CC1)Nc1cccc(C(=O)c2ccccc2)c1 [Compound 268] | -0.89
* O=C(CN1CCC(n2c(=O)[nH]c3ccccc32)CC1)Nc1ccccc1Cl [Compound 348, reference compound] | 0.08

Entry source: patent US6410792B1
